# Measured on: panel of 60 human kinases (Homo sapiens)
# Construct: purchased Reaction Biology Corp
# Sequence (Q00535 whole entry): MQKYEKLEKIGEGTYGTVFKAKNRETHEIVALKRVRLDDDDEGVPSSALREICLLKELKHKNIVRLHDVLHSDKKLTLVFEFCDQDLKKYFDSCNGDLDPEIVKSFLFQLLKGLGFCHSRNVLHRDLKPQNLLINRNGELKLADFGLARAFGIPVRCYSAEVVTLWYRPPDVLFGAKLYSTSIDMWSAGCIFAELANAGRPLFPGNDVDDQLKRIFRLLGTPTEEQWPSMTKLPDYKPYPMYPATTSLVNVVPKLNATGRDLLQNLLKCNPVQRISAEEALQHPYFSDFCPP
# Experimental details: Radiolabeled ATP kinase assay, panel of 60 kinases (Table S5)
# Format: biochemical
# Condition details: CDK5/p35; 0.1 μM; 10 μM ATP; read-out: % Enzyme Activity (relative to DSMO controls)
remaining activity at 0.1 µM values by entry

Molecule: CN1CCN(Cc2ccc(-c3cnc4[nH]cc(-c5ccc6c(c5)OCCO6)c4c3)cc2)CC1
remaining activity at 0.1 µM / %: 14.2

Molecule: COc1ccccc1-c1c[nH]c2ncc(-c3ccc(CN4CCN(C)CC4)cc3)cc12
remaining activity at 0.1 µM / %: 31.9

Molecule: CN1CCN(Cc2ccc(-c3cnc4[nH]cc(-c5ccc6[nH]ccc6c5)c4c3)cc2)CC1 [Compound 1, reference compound]
remaining activity at 0.1 µM / %: 52.3

Molecule: CN1CCN(Cc2ccc(-c3cnc4[nH]cc(-c5ccoc5)c4c3)cc2)CC1
remaining activity at 0.1 µM / %: 82.2

Molecule: CN1CCN(Cc2ccc(-c3cnc4[nH]cc(-c5ccncc5)c4c3)cc2)CC1
remaining activity at 0.1 µM / %: 57.5
